# Organism: Rattus norvegicus
# Method: Open TG-GATES - Regimen: Daily Repeat
# Type: toxicity, organism-based, Sprague-Dawley
# Parameters: regimen Daily Repeat, gender Male, age 6 weeks
# Measurement conditions: in vivo, po, 0 mg/kg, 72 h, tissue Blood, route gavage, dose level Control, time 3 day
Reported endpoint: Ret (%)
Give a bare numeral; the unit % is implied.

Query: Fill blank: measured Ret of the compound C#C[C@]1(O)CC[C@H]2[C@@H]3CCC4=Cc5oncc5C[C@]4(C)[C@H]3CC[C@@]21C is ____.
Reply: 6.7

Query: Using the record for CN1C(C(=O)Nc2ccccn2)=C(O)c2sc(Cl)cc2S1(=O)=O , report its Ret.
Reply: 6.1

Query: GET /values?readout=Ret&item= C1CCC(C(CC2CCCCN2)C2CCCCC2)CC1 (stereo not given)
Reply: 7

Query: Return reported Ret; argument: CC(=O)Nc1nnc(S(N)(=O)=O)s1 [ACETAZOLAMIDE]
Reply: 6.9

Query: Recorded Ret of CCOC(=O)[C@H](CCc1ccccc1)N[C@@H](C)C(=O)N1CCC[C@H]1C(=O)O , please.
Reply: 6.6

###

# Species on record: Rattus norvegicus
# Method: Open TG-GATES - Regimen: Single
# Format: toxicity, organism-based, Sprague-Dawley
# Set-up: regimen Single, gender Male, age 6 weeks
# Measurement conditions: in vivo, po, 0 mg/kg, 9 h, tissue Plasma, route gavage, dose level Control
Would you mind telling me the reported PL of each entry?
Answer with the value and then the unit.

Query: What does the data say about its PL? Entry: CC(=O)Nc1nnc(S(N)(=O)=O)s1 [ACETAZOLAMIDE]
Reply: 113.2 mg/dL

Query: Give the measured PL of COc1cc([C@@H]2c3cc4c(cc3[C@@H](O[C@@H]3O[C@@H]5CO[C@@H](C)O[C@H]5[C@H](O)[C@H]3O)[C@H]3COC(=O)[C@H]23)OCO4)cc(OC)c1O [ETOPOSIDE] .
Reply: 127.4 mg/dL

Query: I have this molecule here, CN1C(C(=O)Nc2ccccn2)=C(O)c2sc(Cl)cc2S1(=O)=O , and I need its recorded PL.
Reply: 136.8 mg/dL

Query: Dear colleague, I am looking for the recorded PL of the following molecule: C#C[C@]1(O)CC[C@H]2[C@@H]3CCC4=Cc5oncc5C[C@]4(C)[C@H]3CC[C@@]21C
Reply: 124 mg/dL

Query: Query (molecule): CC(CN1c2ccccc2Sc2ccccc21)N(C)C (stereo not given) ; field requested: PL
Reply: 125.8 mg/dL

Query: PL lookup needed for CCOC(=O)[C@H](CCc1ccccc1)N[C@@H](C)C(=O)N1CCC[C@H]1C(=O)O , thanks.
Reply: 133.4 mg/dL

Query: Need PL, item C1CCC(C(CC2CCCCN2)C2CCCCC2)CC1 (stereo not given)
Reply: 135.6 mg/dL

Query: Would you kindly share the measured PL for CN(C)[C@@H]1C(O)=C(C(N)=O)C(=O)[C@@]2(O)C(O)=C3C(=O)c4c(O)cccc4[C@@](C)(O)[C@H]3C[C@@H]12 ?
Reply: 123.6 mg/dL

Query: I would be grateful if you could share the reported PL for Clc1c(Cl)c(Cl)c(Cl)c(Cl)c1Cl .
Reply: 129.4 mg/dL

Query: Return reported PL; argument: Cc1cccc(Nc2ccccc2C(=O)O)c1C
Reply: 136.4 mg/dL

###

Would you kindly list PL for each of these compounds?
# Organism: Rattus norvegicus
# Method: Open TG-GATES - Regimen: Daily Repeat
# Assay type: toxicity, organism-based, Sprague-Dawley
# Parameters: regimen Daily Repeat, gender Male, age 6 weeks
# Measurement conditions: in vivo, po, 0 mg/kg, […], tissue Plasma, route gavage, dose level Control, time 14 day
Your answer should be a plain number; it is taken to be in mg/dL.

Query: # PL lookup, item CN1C(C(=O)Nc2ccccn2)=C(O)c2sc(Cl)cc2S1(=O)=O [LORNOXICAM]
Reply: 148.6

Query: State the recorded PL for this entry: CC(CN1c2ccccc2Sc2ccccc21)N(C)C (stereo not given) [PROMETHAZINE]
Reply: 136.8

Query: Consider the compound C1CCC(C(CC2CCCCN2)C2CCCCC2)CC1 (stereo not given) [PERHEXILINE] and give its measured PL.
Reply: 134

Query: Quick one: PL of O=C(O)Cc1ccccc1Nc1c(Cl)cccc1Cl [DICLOFENAC] ?
Reply: 143.8

Query: Would you mind telling me what PL value was observed for Cc1cccc(Nc2ccccc2C(=O)O)c1C [MEFENAMIC ACID] ?
Reply: 142.8

###

# Organism: Rattus norvegicus
# Method: Open TG-GATES - Regimen: Single
# Type: toxicity, organism-based, Sprague-Dawley
# Parameters: regimen Single, gender Male, age 6 weeks
# Measurement conditions: in vivo, po, 0 mg/kg, 3 h, tissue Blood, route gavage, dose level Control
Reported endpoint: Fbg (mg/dL)
Write the value in mg/dL as a bare number.

Query: Endpoint output: Fbg of Clc1c(Cl)c(Cl)c(Cl)c(Cl)c1Cl . Value?
Reply: 218.8

Query: # Fbg lookup, item C#C[C@]1(O)CC[C@H]2[C@@H]3CCC4=Cc5oncc5C[C@]4(C)[C@H]3CC[C@@]21C
Reply: 292.6

Query: // returns reported Fbg for input CC(CN1c2ccccc2Sc2ccccc21)N(C)C (stereo not given)
Reply: 333.6

Query: Entry under review: COc1cc([C@@H]2c3cc4c(cc3[C@@H](O[C@@H]3O[C@@H]5CO[C@@H](C)O[C@H]5[C@H](O)[C@H]3O)[C@H]3COC(=O)[C@H]23)OCO4)cc(OC)c1O [ETOPOSIDE] . Reported Fbg?
Reply: 192.2

Query: Look at this compound and give its reported Fbg. CCOC(=O)[C@H](CCc1ccccc1)N[C@@H](C)C(=O)N1CCC[C@H]1C(=O)O
Reply: 205.6

Query: What does the record list as Fbg for CC(=O)Nc1nnc(S(N)(=O)=O)s1 [ACETAZOLAMIDE] ?
Reply: 309

Query: Field request: Fbg | item: CN1C(C(=O)Nc2ccccn2)=C(O)c2sc(Cl)cc2S1(=O)=O
Reply: 213.2

Query: Recorded Fbg of CN(C)[C@@H]1C(O)=C(C(N)=O)C(=O)[C@@]2(O)C(O)=C3C(=O)c4c(O)cccc4[C@@](C)(O)[C@H]3C[C@@H]12 , please.
Reply: 206.2

Query: I'd like to know its Fbg. The compound in question is Cc1cccc(Nc2ccccc2C(=O)O)c1C
Reply: 217.8

Query: Look up Fbg: C1CCC(C(CC2CCCCN2)C2CCCCC2)CC1 (stereo not given)
Reply: 324

###

# Organism: Rattus norvegicus
# Method: Open TG-GATES - Regimen: Daily Repeat
# Assay type: toxicity, organism-based, Sprague-Dawley
# Design: regimen Daily Repeat, gender Male, age 6 weeks
# Measurement conditions: in vivo, po, 0 mg/kg, 72 h, tissue Plasma, route gavage, dose level Control, time 3 day
Reported endpoint: PL (mg/dL)
Number in mg/dL, nothing else.

Query: Requested field: PL. Item: CN1C(C(=O)Nc2ccccn2)=C(O)c2sc(Cl)cc2S1(=O)=O [LORNOXICAM]
Reply: 145.8

Query: Item under review: Cc1cccc(Nc2ccccc2C(=O)O)c1C [MEFENAMIC ACID] . Reported PL?
Reply: 143.6

Query: What value of PL has been recorded for this entry: Clc1c(Cl)c(Cl)c(Cl)c(Cl)c1Cl [PERCHLOROBENZENE]
Reply: 135

Query: Give the measured PL of O=C(O)Cc1ccccc1Nc1c(Cl)cccc1Cl [DICLOFENAC] .
Reply: 160.6

Query: Look up PL: CC(=O)Nc1nnc(S(N)(=O)=O)s1 [ACETAZOLAMIDE]
Reply: 135

Query: Give its PL value. Item: C1CCC(C(CC2CCCCN2)C2CCCCC2)CC1 (stereo unspecified) [PERHEXILINE]
Reply: 149.4

###

# Organism: Rattus norvegicus
# Method: Open TG-GATES - Regimen: Daily Repeat
# Format: toxicity, organism-based, Sprague-Dawley
# Parameters: regimen Daily Repeat, gender Male, age 6 weeks
# Measurement conditions: in vivo, po, 0 mg/kg, […], tissue Plasma, route gavage, dose level Control, time 14 day
Reported endpoint: TP (g/dL)
Hi! Could you send only the number? It should be in g/dL, unit omitted.

Query: Consider the compound shown here: CC(=O)Nc1nnc(S(N)(=O)=O)s1 [ACETAZOLAMIDE] What is its recorded TP?
Reply: 5.7

Query: Please give the measured TP for this compound: Clc1c(Cl)c(Cl)c(Cl)c(Cl)c1Cl
Reply: 6.2

Query: Tell me the measured TP of O=C(O)Cc1ccccc1Nc1c(Cl)cccc1Cl , please.
Reply: 6

Query: # get_value(readout='TP', item= CCOC(=O)[C@H](CCc1ccccc1)N[C@@H](C)C(=O)N1CCC[C@H]1C(=O)O )
Reply: 6.2

Query: So what's the measured TP for this one? C#C[C@]1(O)CC[C@H]2[C@@H]3CCC4=Cc5oncc5C[C@]4(C)[C@H]3CC[C@@]21C
Reply: 5.8

Query: Requested field: TP. Item: CC(CN1c2ccccc2Sc2ccccc21)N(C)C (stereo not given)
Reply: 5.9

Query: // lookup TP for CN1C(C(=O)Nc2ccccn2)=C(O)c2sc(Cl)cc2S1(=O)=O
Reply: 5.8

Query: Give its TP value. Item: CN(C)[C@@H]1C(O)=C(C(N)=O)C(=O)[C@@]2(O)C(O)=C3C(=O)c4c(O)cccc4[C@@](C)(O)[C@H]3C[C@@H]12
Reply: 6.2

Query: Recorded TP of C1CCC(C(CC2CCCCN2)C2CCCCC2)CC1 (stereo not given) , please.
Reply: 5.8

Query: What measured TP goes with Cc1cccc(Nc2ccccc2C(=O)O)c1C ?
Reply: 5.6
